# Cond: 293.15 K; 101.33 kPa; Liquid
For each of the molecules below, state its mass density.
Numbers only, in kg/m3.

CCOC(=O)CC [ethyl propanoate]
891.62
CCCC(=O)OCC [ethyl butanoate]
876.91
CCCCCC(=O)OCC [ethyl hexanoate]
879.01
CCOC=O [ethyl methanoate]
917.82
CCCCOC(C)=O [butyl ethanoate]
881.04
CC/C=C\CCOC(C)=O [(Z)-3-hexenyl acetate]
900.82
CCCCOC(=O)CCC [butyl butanoate]
872.45
CCCC(=O)OCCC(C)C [3-methylbutyl butanoate]
866.13

Please look at the items below and tell me mass density for each one, in order.
1. CCCCCCOC(=O)CCC [hexyl butanoate]
2. CC/C=C\CCOC(=O)C(C)C [cis-3-hexenyl isobutyrate]
3. CC(=O)OCCC(C)C [3-methylbutyl ethanoate]
4. CCOC(C)=O [ethyl acetate]

860.73
885.08
878.24
900.48

----------
For each of the compounds below, state its mass density.
# Cond: 313.15 K; 101.33 kPa; Liquid
Where a name gives a salt, the structure may show the parent alone.
Give bare numbers, in kg/m3.

CCC/C=C/COC(C)=O [(E)-2-hexenyl acetate]
884.35
CC(=O)OCCC(C)C [3-methylbutyl ethanoate]
870.15
CCCC(=O)OCCC(C)C [3-methylbutyl butanoate]
853.42
CCCCOC(C)=O [butyl ethanoate]
861.84
CCOC(=O)CC [ethyl propanoate]
870.61

Please look at the items below and tell me mass density for each one, in order.
1. CCOC(=O)C(C)CC (configuration not stated) [ethyl 2-methylbutanoate]
2. CCCCCC(=O)OCC [ethyl hexanoate]

1: 853.41; 2: 863.28

Please look at the items below and tell me mass density for each one, in order.
1. CCOC=O [ethyl methanoate]
2. CCOC(=O)CC(C)C [ethyl 3-methylbutanoate]
3. CCOC(C)=O [ethyl acetate]
4. CC/C=C\CCOC=O [(Z)-3-hexenyl formate]
5. CC/C=C\CCOC(C)=O [(Z)-3-hexenyl acetate]

1. 891.5
2. 851.79
3. 878.92
4. 903.17
5. 886.19

----------
For each of the molecules below, state its mass density.
# Cond: 318.15 K; 101.33 kPa; Liquid
Where a name gives a salt, the structure may show the parent alone.
Numbers only, in kg/m3.

Example cases with answers are listed next.
CCCC(=O)OCC [ethyl butanoate]
861.32
CCCCOC(C)=O [butyl ethanoate]
857.32

Please look at the items below and tell me mass density for each one, in order.
1. CCOC(=O)CC [ethyl propanoate]
2. CC/C=C\CCOC(C)=O [(Z)-3-hexenyl acetate]
3. CCOC=O [ethyl methanoate]
4. CCCCCCOC(=O)CCC [hexyl butanoate]
5. CCCCCC(=O)OCC [ethyl hexanoate]
6. CCOC(=O)CC(C)C [ethyl 3-methylbutanoate]
7. CCOC(=O)C(C)CC (configuration not stated) [ethyl 2-methylbutanoate]
8. CCCCOC(=O)CCC [butyl butanoate]

[867.34, 881.43, 887.41, 834.65, 860.19, 847.39, 849.32, 854.31]

Please look at the items below and tell me mass density for each one, in order.
1. CCOC(C)=O [ethyl acetate]
2. CCC/C=C/COC(C)=O [(E)-2-hexenyl acetate]
3. CC/C=C\CCOC=O [(Z)-3-hexenyl formate]
4. CC/C=C\CCOC(=O)C(C)C [cis-3-hexenyl isobutyrate]

874.51
880.19
901.19
861.49

Please look at the items below and tell me mass density for each one, in order.
1. CCCC(=O)OCCC(C)C [3-methylbutyl butanoate]
2. CCCCCCOC(C)=O [hexyl ethanoate]
3. CC(=O)OCCC(C)C [3-methylbutyl ethanoate]

1. 850.11
2. 848.84
3. 867.32

----------
# Cond: 313.15 K; 101.33 kPa; Liquid; Falling or rolling sphere viscometry
Result type: viscosity (mPa·s)
One number for each entry, in mPa·s.

Example cases with answers are listed next.
CC(=O)OCCC(C)C [3-methylbutyl ethanoate]
0.678
CC/C=C\CCOC(=O)C(C)C [cis-3-hexenyl isobutyrate]
0.741

Which viscosity value is on record for CCCCCCOC(C)=O [hexyl ethanoate] ?
0.836

----------
# Cond: 298.15 K; 101.33 kPa; Liquid
For each of the molecules below, state its mass density.
Answers are plain numbers, in kg/m3.

Example cases with answers are listed next.
CCCCCCOC(=O)CCC [hexyl butanoate]
851
CC/C=C\CCOC(=O)C(C)C [cis-3-hexenyl isobutyrate]
878.12
CCOC=O [ethyl methanoate]
912.06
CC(=O)OCCC(C)C [3-methylbutyl ethanoate]
876.01
CCCC(=O)OCCC(C)C [3-methylbutyl butanoate]
862.04
CCCCCC(=O)OCC [ethyl hexanoate]
872.53
CCC/C=C/COC(C)=O [(E)-2-hexenyl acetate]
894.32
CCCC(=O)OCC [ethyl butanoate]
874.42

Please look at the items below and tell me mass density for each one, in order.
1. CCOC(=O)CC [ethyl propanoate]
2. CCOC(C)=O [ethyl acetate]
3. CCCCCCOC(C)=O [hexyl ethanoate]

1: 884.1; 2: 894.81; 3: 867.3

----------
# Cond: 318.15 K; 101.33 kPa; Liquid; Falling or rolling sphere viscometry
Counter-ions that a name gives are not always drawn.
I'd appreciate it if you marked entries y when viscosity is lower than 0.6 mPa·s and n when it is not.

Please review the entries below; each comes with its answer.
CC/C=C\CCOC=O [(Z)-3-hexenyl formate]
y
CCC/C=C/COC(C)=O [(E)-2-hexenyl acetate]
n
CC(=O)OCCC(C)C [3-methylbutyl ethanoate]
n
CCOC=O [ethyl methanoate]
y
CC/C=C\CCOC(=O)C(C)C [cis-3-hexenyl isobutyrate]
n
CCOC(=O)CC [ethyl propanoate]
y
CCCCCC(=O)OCC [ethyl hexanoate]
y
CCCCCCOC(C)=O [hexyl ethanoate]
n

Strictly below 0.6 mPa·s in viscosity? CCCC(=O)OCC [ethyl butanoate]
y

Please give the result for CCCCOC(C)=O [butyl ethanoate] too.
y

Please give the result for CCCC(=O)OCCC(C)C [3-methylbutyl butanoate] too.
n

----------
# Cond: 303.15 K; 101.33 kPa; Liquid
Counter-ions that a name gives are not always drawn.
For each of the compounds below, state its mass density.
One number for each entry, in kg/m3.

Example cases with answers are listed next.
CCOC(=O)CC(C)C [ethyl 3-methylbutanoate]
860.12
CCCC(=O)OCC [ethyl butanoate]
870.13
CC(=O)OCCC(C)C [3-methylbutyl ethanoate]
875.94
CCCCCC(=O)OCC [ethyl hexanoate]
869.31
CC/C=C\CCOC=O [(Z)-3-hexenyl formate]
906.6

API: the following record is the query input.
Which mass density value is on record for CCCCCCOC(=O)CCC [hexyl butanoate] ?
846.52

----------
# Cond: 333.15 K; 101.33 kPa; Liquid; Falling or rolling sphere viscometry
± gives the expanded uncertainty stated by the source.
For each of the compounds below, state its viscosity.
In your response, put the unit directly after the numeric value.

CCCC(=O)OCC [ethyl butanoate]
0.42 ± 0.009 mPa·s
CC(=O)OCCC(C)C [3-methylbutyl ethanoate]
0.536 ± 0.009 mPa·s

API: the following record is the query input.
Which viscosity value is on record for CCOC(=O)C(C)CC (stereo not drawn) [ethyl 2-methylbutanoate] ?
0.503 ± 0.009 mPa·s

----------
# Cond: 328.15 K; 101.33 kPa; Liquid
Counter-ions that a name gives are not always drawn. ± gives the expanded uncertainty stated by the source.
For each of the molecules below, state its mass density.
In your response, put the unit directly after the numeric value.

Example cases with answers are listed next.
CCOC(=O)CC(C)C [ethyl 3-methylbutanoate]
842.35 ± 6.6 kg/m3
CC/C=C\CCOC=O [(Z)-3-hexenyl formate]
896.72 ± 3.2 kg/m3
CC(=O)OCCC(C)C [3-methylbutyl ethanoate]
860.14 ± 12 kg/m3
CCCCCC(=O)OCC [ethyl hexanoate]
851.93 ± 3.8 kg/m3

Please look at the items below and tell me mass density for each one, in order.
1. CCCCCCOC(C)=O [hexyl ethanoate]
2. CCCCCCOC(=O)CCC [hexyl butanoate]
3. CCCC(=O)OCCC(C)C [3-methylbutyl butanoate]
4. CCC/C=C/COC(C)=O [(E)-2-hexenyl acetate]
5. CCOC(=O)CC [ethyl propanoate]
6. CC/C=C\CCOC(C)=O [(Z)-3-hexenyl acetate]
7. CCOC(=O)C(C)CC (configuration not stated) [ethyl 2-methylbutanoate]
8. CCOC(C)=O [ethyl acetate]

1: 839.64 ± 4 kg/m3; 2: 828.19 ± 4.2 kg/m3; 3: 842.31 ± 5.7 kg/m3; 4: 872.81 ± 3.4 kg/m3; 5: 860.89 ± 6.5 kg/m3; 6: 875.21 ± 3.4 kg/m3; 7: 841.59 ± 7.5 kg/m3; 8: 867.13 ± 3.5 kg/m3
